testedSystem: unphosphorylated T315I Abl kinase domain (Mus musculus, UniProt P00520, T315I)
Construct: purified and unphosphorylated T315I Abl kinase domain
Sequence (P00520 242-493 T315I limits assumed): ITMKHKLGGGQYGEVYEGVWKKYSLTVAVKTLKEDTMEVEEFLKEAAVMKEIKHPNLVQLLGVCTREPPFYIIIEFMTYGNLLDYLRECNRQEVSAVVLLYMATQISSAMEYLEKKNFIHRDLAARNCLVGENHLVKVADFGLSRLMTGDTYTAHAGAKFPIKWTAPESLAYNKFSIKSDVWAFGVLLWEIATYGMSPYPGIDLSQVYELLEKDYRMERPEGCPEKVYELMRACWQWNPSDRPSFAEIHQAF
experiment: c-Abl T315I 0P bioassay (pyruvate kinase/lactate dehydrogenase coupled enzyme assay)
runConditions: zero phosphorylation state (0P), 10 μM ATP, read-out: AbI T315I 0P IC50
pIC50: −log10 of the molar value.
measuredParameter: pIC50

Previously resolved entries follow.
CNC(=O)C(O)c1cccc(-c2cnc3[nH]nc(-c4ccccc4OC)c3c2)c1 (stereo not drawn) : > 7.30
COc1ccccc1-c1c[nH]c2ncc(-c3cccc(C(O)C(=O)N(C)CC4CCCO4)c3)cc12 (stereo not drawn) : > 7.30
COc1ccccc1-c1c[nH]c2ncc(-c3cccc(C(O)c4nccn4C)c3)cc12 (stereo not drawn) : > 7.30
COc1ccccc1-c1n[nH]c2ncc(-c3cccc([C@H]4OCO[C@@H]4C(C)C)c3)cc12 : > 7.30

Request: Value lookup for pIC50; key = COc1ccccc1-c1n[nH]c2ncc(-c3cccc(C(C)O)c3)cc12 (stereo not drawn)
Response: > 7.30

Request: Value lookup for pIC50; key = "COc1ccccc1-c1n[nH]c2ncc(-c3cccc(CO)c3)cc12"
Response: < 6.30

Request: Value lookup for pIC50; key = CN(C)C(=O)C(O)c1cncc(-c2cnc3[nH]cc(-c4cnn(C)c4)c3c2)c1 (stereo not drawn)
Response: 6.30 to 7.30

Request: Value lookup for pIC50; key = COc1ccccc1-c1n[nH]c2ncc(-c3cccc(C(C)C(=O)N(C)C4CCN(C)C4)c3)cc12 (stereo not drawn)
Response: > 7.30

Request: Value lookup for pIC50; key = "COc1ccccc1-c1n[nH]c2ncc(-c3cccc(C(=O)C(=O)N4CC(O)C4)c3)cc12"
Response: > 7.30
